target.system: HLA-DR DRB1*09:01 (Homo sapiens, UniProt P01903+P01911, A100R/A103E/D57H/D86V/F55Y/F60I/F76Y/I96F/K127E/L162R/M171V/P40D/Q125H/Q99R/R33Q/R42F/S133A/S66N/T210M/V115G/W38K/Y107V/Y59G/Y89S)
assay.protocol: biochemical
Type: binding
experimental.parameters: read-out: Binding capacity/IC50 (nM) DRB1*09:01
result.type: IC50 (nM)
Enter your answer as a number in nM; do not include the unit.

Name the recorded IC50 for CC[C@H](C)[C@H](NC(=O)CNC(=O)[C@H](CCCCN)NC(=O)[C@H](Cc1c[nH]cn1)NC(=O)[C@H](C)NC(=O)[C@@H]1CCCN1C(=O)[C@@H](NC(=O)[C@H](Cc1c[nH]c2ccccc12)NC(=O)[C@H](CO)NC(=O)[C@H](CC(C)C)NC(=O)[C@H](Cc1ccc(O)cc1)NC(=O)[C@@H](NC(=O)[C@H](CCCCN)NC(=O)[C@H](CCC(=O)O)NC(=O)[C@@H](N)CCCCN)C(C)C)C(C)C)C(=O)NCC(=O)NCC(=O)N[C@@H](CC(N)=O)C(=O)N[C@@H](CCC(=O)O)C(N)=O [RT(528-546)] .
33

CC[C@H](C)[C@H](NC(=O)[C@@H](NC(=O)[C@H](CCCCN)NC(=O)[C@@H](NC(=O)[C@@H]1CCCN1C(=O)[C@H](Cc1c[nH]c2ccccc12)NC(=O)[C@H](CCCNC(=N)N)NC(=O)CNC(=O)[C@H](C)NC(=O)[C@H](CC(C)C)NC(=O)[C@H](CCCCN)NC(=O)[C@H](CC(C)C)NC(=O)[C@@H](NC(=O)[C@H](Cc1ccccc1)NC(=O)[C@H](Cc1ccc(O)cc1)NC(=O)[C@H](C)NC(=O)[C@@H](NC(=O)[C@@H](N)CCC(=O)O)[C@@H](C)O)[C@@H](C)CC)C(C)C)C(C)C)C(N)=O [integrase(96-113)] , same question.
390

Likewise for CC[C@H](C)[C@H](NC(=O)[C@@H]1CCCN1C(=O)[C@H](CCC(=O)O)NC(=O)[C@@H](N)CCCCN)C(=O)N[C@H](C(=O)NCC(=O)N[C@@H](C)C(=O)N[C@@H](CCC(=O)O)C(=O)N[C@H](C(=O)N[C@@H](Cc1ccccc1)C(=O)N[C@@H](Cc1ccc(O)cc1)C(=O)N[C@H](C(=O)N[C@@H](CC(=O)O)C(=O)NCC(=O)N[C@@H](C)C(N)=O)C(C)C)[C@@H](C)O)C(C)C [RT(431-445)] ?
23

* * *

Field: IC50. Provide a value for each of the substances that follow.
target.system: HLA-DP DPA1*01:03/DPB1*20:01 (Homo sapiens, UniProt P04440+P20036, A65V/A84D/A85E/E86D/F38Y/G113D/G114E/G40L/I94L/L37V/M116V/P115A/R125K/T199I)
assay.protocol: biochemical
Type: binding
experimental.parameters: read-out: Binding capacity/IC50 (nM) DPA1*01:03 DPB1*20:01
Ends that are not written are not given here.
Number in nM, nothing else.

If you can, please state the reported IC50 value of LNKIVRMYSPVSILDI-NH2 [p24(138-153)] .
3

Further, for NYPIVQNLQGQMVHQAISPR-NH2 [p17(131-132)/p24(1-18)] ?
952

Same for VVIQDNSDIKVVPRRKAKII-NH2 [integrase(249-268)]
1080

// next record YAKMRSAHTNDVKQL-NH2 [RT(354-368)]
202

What about this substance? IVALIIAIVVWTIV-NH2 [vpu(13-26)]
5810

Field entry: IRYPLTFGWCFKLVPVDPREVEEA-NH2 [nef(133-156)]
13000

Now the same for SEELRSLYNTVATLYCVHQ-NH2 [p17(72-90)]
2310

Next substance up: DEELLKAVRIIKILYQSNP-NH2 [rev(9-27)]
202

* * *

target.system: HLA-DR DRB1*15:01 (Homo sapiens, UniProt P01903+P01911)
assay.protocol: biochemical
Format: binding
Ends that are not written are not given here.
result.type: IC50 (nM)
Give the quantity in nM, number only.

Field request: IC50 | item: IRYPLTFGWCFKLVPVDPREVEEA-NH2 [nef(133-156)]
718

Same question, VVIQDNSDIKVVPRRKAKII-NH2 [integrase(249-268)] this time
139

* * *

target.system: HLA-DR DRB1*03:01 (Homo sapiens, UniProt P01903+P01911, A100K/A102G/A103R/A169T/F55Y/I96L/K41T/L162R/M171V/P40S/Q125H/Q178H/Q39Y/R42S/S66N/T106N/T262R/W38E/Y61H)
Sequence (P01903 26-254 limits assumed, other chains not shown): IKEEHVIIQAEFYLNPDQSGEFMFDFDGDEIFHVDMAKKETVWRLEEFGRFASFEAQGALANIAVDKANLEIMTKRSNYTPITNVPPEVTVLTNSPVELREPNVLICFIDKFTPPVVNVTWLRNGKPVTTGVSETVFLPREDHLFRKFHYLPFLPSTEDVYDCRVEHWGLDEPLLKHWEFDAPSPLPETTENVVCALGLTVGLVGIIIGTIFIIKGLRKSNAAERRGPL
assay.protocol: biochemical
Format: binding
Ends that are not written are not given here.
result.type: pIC50
pIC50 (log units): -log10 of the concentration in mol/L.

Which pIC50 value is on record for VGSLQYLALTALITPKK-NH2 [vif(142-158)] ?
5.35

Same thing, different substance: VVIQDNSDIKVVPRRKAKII-NH2 [integrase(249-268)]
7.05

* * *

target.system: HLA-DR DRB1*09:01 (Homo sapiens, UniProt P01903+P01911, A100R/A103E/D57H/D86V/F55Y/F60I/F76Y/I96F/K127E/L162R/M171V/P40D/Q125H/Q99R/R33Q/R42F/S133A/S66N/T210M/V115G/W38K/Y107V/Y59G/Y89S)
assay.protocol: biochemical
Assay type: binding
experimental.parameters: read-out: Binding capacity/IC50 (nM) DRB1*09:01
Ends that are not written are not given here.
result.type: IC50 (nM)
Hi! Could you send only the number? It should be in nM, unit omitted.

May I ask what IC50 has been recorded for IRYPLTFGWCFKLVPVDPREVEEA-NH2 [nef(133-156)] ?
360

Another substance to check: DEELLKAVRIIKILYQSNP-NH2 [rev(9-27)]
124

Now try IVALIIAIVVWTIV-NH2 [vpu(13-26)] .
6640

And for SEELRSLYNTVATLYCVHQ-NH2 [p17(72-90)] ?
217

Try this substance next: LNKIVRMYSPVSILDI-NH2 [p24(138-153)]
36

What do we get for YAKMRSAHTNDVKQL-NH2 [RT(354-368)] ?
66

// repeat for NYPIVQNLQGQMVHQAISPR-NH2 [p17(131-132)/p24(1-18)] and report
248

* * *

Kindly supply the reported IC50 values for the records listed here.
target.system: HLA-DP DPA1*03:01/DPB1*04:02 (Homo sapiens, UniProt P04440+P20036, A42M/A65V/A84D/A85E/L207M/L97S)
Sequence (P04440 whole entry A65V/A84D/A85E/L207M): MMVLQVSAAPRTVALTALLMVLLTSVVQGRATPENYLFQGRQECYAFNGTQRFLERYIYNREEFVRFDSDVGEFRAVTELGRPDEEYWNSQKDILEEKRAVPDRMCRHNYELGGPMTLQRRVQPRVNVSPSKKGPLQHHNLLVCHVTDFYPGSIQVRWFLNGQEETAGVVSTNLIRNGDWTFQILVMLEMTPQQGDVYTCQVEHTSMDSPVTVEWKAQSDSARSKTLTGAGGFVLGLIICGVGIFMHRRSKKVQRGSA
Sequence (P20036 whole entry A42M/L97S): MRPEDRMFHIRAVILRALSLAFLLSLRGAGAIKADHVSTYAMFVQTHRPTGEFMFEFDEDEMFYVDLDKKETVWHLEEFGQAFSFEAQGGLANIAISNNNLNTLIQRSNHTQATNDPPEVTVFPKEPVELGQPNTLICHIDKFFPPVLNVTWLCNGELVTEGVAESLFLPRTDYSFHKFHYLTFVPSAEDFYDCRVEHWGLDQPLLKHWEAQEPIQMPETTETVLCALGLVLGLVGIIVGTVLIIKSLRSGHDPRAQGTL
assay.protocol: biochemical
Number in nM, nothing else.

Fill in the blank: the reported IC50 of CSCC[C@H](NC(=O)[C@H](CCCCN)NC(=O)[C@H](C)NC(=O)[C@H](Cc1ccc(O)cc1)NC(=O)[C@H](CCCCN)NC(=O)CNC(=O)[C@@H](NC(=O)[C@H](CCCCN)NC(=O)[C@H](CC(C)C)NC(=O)[C@H](CC(N)=O)NC(=O)[C@H](CCCCN)NC(=O)[C@H](Cc1ccccc1)NC(=O)[C@@H]1CCCN1C(=O)[C@H](CCC(=O)O)NC(=O)[C@@H](N)CCC(N)=O)[C@@H](C)O)C(N)=O is ____.
4210

Now this one: CC[C@H](C)[C@H](NC(=O)[C@H](Cc1ccc(O)cc1)NC(=O)CNC(=O)[C@H](CO)NC(=O)[C@H](C)NC(=O)[C@@H](NC(=O)[C@H](Cc1c[nH]cn1)NC(=O)[C@@H](NC(=O)[C@H](C)NC(=O)[C@@H](NC(=O)[C@H](CC(C)C)NC(=O)[C@@H](NC(=O)[C@@H](NC(=O)[C@H](CCCCN)NC(=O)CNC(=O)[C@@H](N)CCC(=O)O)[C@@H](C)CC)[C@@H](C)CC)C(C)C)C(C)C)C(C)C)C(=O)N[C@@H](CCC(=O)O)C(N)=O
212

What about this molecule? CC[C@H](C)[C@H](NC(=O)CNC(=O)[C@H](CCCCN)NC(=O)[C@H](Cc1c[nH]cn1)NC(=O)[C@H](C)NC(=O)[C@@H]1CCCN1C(=O)[C@@H](NC(=O)[C@H](Cc1c[nH]c2ccccc12)NC(=O)[C@H](CO)NC(=O)[C@H](CC(C)C)NC(=O)[C@H](Cc1ccc(O)cc1)NC(=O)[C@@H](NC(=O)[C@H](CCCCN)NC(=O)[C@H](CCC(=O)O)NC(=O)[C@@H](N)CCCCN)C(C)C)C(C)C)C(=O)NCC(=O)NCC(=O)N[C@@H](CC(N)=O)C(=O)N[C@@H](CCC(=O)O)C(N)=O
150

Same read-out for CC(C)C[C@H](NC(=O)[C@H](CCCCN)NC(=O)[C@@H](NC(=O)[C@H](CC(C)C)NC(=O)[C@@H]1CCCN1C(=O)[C@@H]1CCCN1C(=O)[C@@H](NC(=O)[C@H](CC(N)=O)NC(=O)[C@@H](NC(=O)[C@H](Cc1ccccc1)NC(=O)[C@H](CCC(=O)O)NC(=O)[C@H](Cc1c[nH]c2ccccc12)NC(=O)[C@@H](N)CCC(=O)O)C(C)C)[C@@H](C)O)C(C)C)C(=O)N[C@@H](Cc1c[nH]c2ccccc12)C(=O)N[C@@H](Cc1ccc(O)cc1)C(N)=O ?
7

What do you get for CC[C@H](C)[C@H](NC(=O)[C@@H](NC(=O)[C@H](CCCCN)NC(=O)[C@@H](NC(=O)[C@@H]1CCCN1C(=O)[C@H](Cc1c[nH]c2ccccc12)NC(=O)[C@H](CCCNC(=N)N)NC(=O)CNC(=O)[C@H](C)NC(=O)[C@H](CC(C)C)NC(=O)[C@H](CCCCN)NC(=O)[C@H](CC(C)C)NC(=O)[C@@H](NC(=O)[C@H](Cc1ccccc1)NC(=O)[C@H](Cc1ccc(O)cc1)NC(=O)[C@H](C)NC(=O)[C@@H](NC(=O)[C@@H](N)CCC(=O)O)[C@@H](C)O)[C@@H](C)CC)C(C)C)C(C)C)C(N)=O ?
141

Another: CC[C@H](C)[C@H](NC(=O)[C@H](CCSC)NC(=O)[C@@H](NC(=O)[C@H](CCC(N)=O)NC(=O)[C@H](Cc1c[nH]c2ccccc12)NC(=O)[C@H](CCCNC(=N)N)NC(=O)[C@H](CC(N)=O)NC(=O)[C@H](CCC(=O)O)NC(=O)[C@@H](N)CCSC)C(C)C)C(=O)N[C@H](C(=O)N[C@@H](Cc1c[nH]c2ccccc12)C(=O)N[C@@H](CCC(N)=O)C(=O)N[C@H](C(=O)N[C@@H](CC(=O)O)C(=O)N[C@@H](CCCNC(=N)N)C(N)=O)C(C)C)C(C)C
3750
